Entries and their measured binding response (% of DMSO) follow.
study_system: Desmoglein-3 (Homo sapiens)
assay_procedure: inhibitors of anti-DSG3 scFv binding to DSG3, confirmation, biochemical, cherry pick 1, bead-based, flow cytometry (AID 588466);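 also: 100% = 2% DMSO vehicle and 0% = excess soluble DSG3 blocking control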
recorded_conditions: Protein G beads with DSG3, scFv-GFP binding, at 10 µM, active compounds read low
The whole screen tested about 2,100 compounds, of which about 30 (1%) were called active. Not all results are given here.

compound	study_system	unit_name	binding response (% of DMSO)
CCN1CCN(c2ccc(S(=O)(=O)N3CCOCC3)cc2NC(=O)CCSC)CC1	Desmoglein-3 (Homo sapiens)	%	105
O=S(=O)(NCCOc1ccccc1F)c1ccc(Cl)cc1F	Desmoglein-3 (Homo sapiens)	%	102
COc1ccc(-c2nc(C#N)c(NCc3ccccc3Cl)o2)cc1	Desmoglein-3 (Homo sapiens)	%	89.4
CCCCSc1nnc(-c2ccc(NC(=O)CCc3ccccc3)cc2)n1C	Desmoglein-3 (Homo sapiens)	%	104
Fc1ccc2nc(C3CCCCN3Cc3nc(CC4CC4)no3)[nH]c2c1 (stereo not given)	Desmoglein-3 (Homo sapiens)	%	102
